- Tested on: Canis familiaris
- TEST PROTOCOL: Percent change in renal blood flow by 6.2 mg/kg of compound administered intravenously in dog
- Assay type: functional, Canis lupus familiaris
- CONDITIONS: route intravenous
Classification field: enter yes (1) for Change values not below 10%, no (0) for values below it.

compound_structure=COc1cc2cnc(O)c(NC(C)=O)c2cc1OC cat="yes (1)"
compound_structure=CCCCCC(=O)Nc1c(O)nc(C)c2cc(OC)c(OC)cc12 cat="no (0)"
compound_structure=CCCCC(=O)Nc1c(O)nc(C)c2cc(OC)c(OC)cc12 cat="no (0)"

// query Hello, I need to know if COc1cccc(NC(=O)Nc2c(O)nc(C)c3cc(OC)c(OC)cc23)c1 has measured Change not below 10%. Thanks!
// result yes (1)
